Please go through the items and note down their Emax.
assay_target: rCB1 (Rattus norvegicus, UniProt P20272)
Sequence (P20272 whole entry): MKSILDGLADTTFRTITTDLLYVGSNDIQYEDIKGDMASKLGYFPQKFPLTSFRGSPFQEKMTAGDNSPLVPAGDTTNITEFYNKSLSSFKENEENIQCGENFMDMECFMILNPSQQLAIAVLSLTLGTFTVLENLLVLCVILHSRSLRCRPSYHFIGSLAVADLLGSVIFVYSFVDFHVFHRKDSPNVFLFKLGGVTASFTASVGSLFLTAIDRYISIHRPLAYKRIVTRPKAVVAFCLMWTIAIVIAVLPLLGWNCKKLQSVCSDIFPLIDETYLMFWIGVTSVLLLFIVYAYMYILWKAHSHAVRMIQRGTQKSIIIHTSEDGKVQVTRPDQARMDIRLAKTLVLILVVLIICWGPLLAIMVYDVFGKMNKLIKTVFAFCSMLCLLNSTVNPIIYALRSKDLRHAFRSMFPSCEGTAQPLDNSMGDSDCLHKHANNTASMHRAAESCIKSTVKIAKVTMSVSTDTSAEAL
assay_notes: cAMP assay, rCB1
Type: cell-based
stated_conditions: cAMP assay
One number for each entry, in %.

# molecule, measure, quantitative_result
measured = [
    ("CCCCSC(=O)C(C)(C)c1cc(O)c2c(c1)OC(C)(C)[C@@H]1CCC(=O)C[C@@H]21 [Compound 34h]", "Emax", 89),
    ("CC(C)(C(=O)OCCCN=[N+]=[N-])c1cc(O)c2c(c1)OC(C)(C)[C@@H]1CCC(=O)C[C@@H]21", "Emax", 52),
    ("CCC[C@H](C)OC(=O)C(C)(C)c1cc(O)c2c(c1)OC(C)(C)[C@@H]1CCC(=O)C[C@@H]21 [Compound 34e]", "Emax", 58),
    ("CC(C)(C(=O)OCCCN1CCOCC1)c1cc(O)c2c(c1)OC(C)(C)[C@@H]1CCC(=O)C[C@@H]21 [Compound 34g]", "Emax", 78),
    ("CCCCCOC(=O)C(C)(C)c1cc(O)c2c(c1)OC(C)(C)[C@@H]1CCC(=O)C[C@@H]21 [Compound 34c]", "Emax", 94),
]

Proceeding to the next molecule to report its Emax.
Kindly note the recorded Emax for CC(C)(C(=O)OCCCN=C=S)c1cc(O)c2c(c1)OC(C)(C)[C@@H]1CCC(=O)C[C@@H]21 , which is 38
